# assay-protocol: Plasma binding by equilibrium dialysis, mouse
# Format: in vitro ADME
# reported-conditions: equilibrium dialysis 6 hours 37°C, read-out: Fu, plasma (mouse)
readout-label: fraction unbound at 6 h, 5 µM

q: Give the measured fraction unbound at 6 h, 5 µM of `Cc1nc(-c2cccs2)sc1CNC(=O)Nc1cccs1` .
a: 0.01

---

# assayed-system: Kir3.1/Kir3.2 (Homo sapiens, UniProt P48051+P48549)
# Sequence (P48549 whole entry): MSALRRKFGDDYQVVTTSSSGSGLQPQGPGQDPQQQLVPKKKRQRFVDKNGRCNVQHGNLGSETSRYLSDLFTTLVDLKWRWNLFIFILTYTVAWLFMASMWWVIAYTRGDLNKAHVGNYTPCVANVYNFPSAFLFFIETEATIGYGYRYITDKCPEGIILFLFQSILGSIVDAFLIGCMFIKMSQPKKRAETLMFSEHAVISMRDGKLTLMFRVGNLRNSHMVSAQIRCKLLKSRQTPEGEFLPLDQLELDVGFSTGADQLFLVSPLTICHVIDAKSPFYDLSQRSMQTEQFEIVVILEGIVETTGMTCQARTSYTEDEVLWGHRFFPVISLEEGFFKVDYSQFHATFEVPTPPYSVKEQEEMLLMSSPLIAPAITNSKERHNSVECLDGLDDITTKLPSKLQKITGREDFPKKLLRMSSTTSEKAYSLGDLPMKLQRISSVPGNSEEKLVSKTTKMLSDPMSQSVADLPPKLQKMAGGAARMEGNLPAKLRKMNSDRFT
# Sequence (P48051 whole entry): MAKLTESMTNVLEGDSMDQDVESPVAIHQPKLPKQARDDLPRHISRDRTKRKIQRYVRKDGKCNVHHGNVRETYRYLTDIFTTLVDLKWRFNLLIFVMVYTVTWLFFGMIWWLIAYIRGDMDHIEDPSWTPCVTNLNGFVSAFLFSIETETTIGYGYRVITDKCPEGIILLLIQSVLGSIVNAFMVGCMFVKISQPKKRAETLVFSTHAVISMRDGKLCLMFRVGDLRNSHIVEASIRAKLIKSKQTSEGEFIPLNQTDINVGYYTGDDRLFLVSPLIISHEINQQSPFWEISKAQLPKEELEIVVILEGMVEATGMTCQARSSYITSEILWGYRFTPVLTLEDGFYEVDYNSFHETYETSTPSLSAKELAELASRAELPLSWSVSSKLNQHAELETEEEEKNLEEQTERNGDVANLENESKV
# assay-protocol: Thallium flux selectivity assay Kir3.1/Kir3.2
readout-label: IC50

q: I am curious: what IC50 value has been reported for `Cc1nc(-c2cccs2)sc1CNC(=O)Nc1cccs1` ?
a: > 30 µM

---

# assayed-system: Kir6.1/SUR2B (Homo sapiens)
# Construct: expressed in transfected cells; also transiently transfected HEK293T
# Sequence (O60706 1-1549 isoform O60706-2, species assumed): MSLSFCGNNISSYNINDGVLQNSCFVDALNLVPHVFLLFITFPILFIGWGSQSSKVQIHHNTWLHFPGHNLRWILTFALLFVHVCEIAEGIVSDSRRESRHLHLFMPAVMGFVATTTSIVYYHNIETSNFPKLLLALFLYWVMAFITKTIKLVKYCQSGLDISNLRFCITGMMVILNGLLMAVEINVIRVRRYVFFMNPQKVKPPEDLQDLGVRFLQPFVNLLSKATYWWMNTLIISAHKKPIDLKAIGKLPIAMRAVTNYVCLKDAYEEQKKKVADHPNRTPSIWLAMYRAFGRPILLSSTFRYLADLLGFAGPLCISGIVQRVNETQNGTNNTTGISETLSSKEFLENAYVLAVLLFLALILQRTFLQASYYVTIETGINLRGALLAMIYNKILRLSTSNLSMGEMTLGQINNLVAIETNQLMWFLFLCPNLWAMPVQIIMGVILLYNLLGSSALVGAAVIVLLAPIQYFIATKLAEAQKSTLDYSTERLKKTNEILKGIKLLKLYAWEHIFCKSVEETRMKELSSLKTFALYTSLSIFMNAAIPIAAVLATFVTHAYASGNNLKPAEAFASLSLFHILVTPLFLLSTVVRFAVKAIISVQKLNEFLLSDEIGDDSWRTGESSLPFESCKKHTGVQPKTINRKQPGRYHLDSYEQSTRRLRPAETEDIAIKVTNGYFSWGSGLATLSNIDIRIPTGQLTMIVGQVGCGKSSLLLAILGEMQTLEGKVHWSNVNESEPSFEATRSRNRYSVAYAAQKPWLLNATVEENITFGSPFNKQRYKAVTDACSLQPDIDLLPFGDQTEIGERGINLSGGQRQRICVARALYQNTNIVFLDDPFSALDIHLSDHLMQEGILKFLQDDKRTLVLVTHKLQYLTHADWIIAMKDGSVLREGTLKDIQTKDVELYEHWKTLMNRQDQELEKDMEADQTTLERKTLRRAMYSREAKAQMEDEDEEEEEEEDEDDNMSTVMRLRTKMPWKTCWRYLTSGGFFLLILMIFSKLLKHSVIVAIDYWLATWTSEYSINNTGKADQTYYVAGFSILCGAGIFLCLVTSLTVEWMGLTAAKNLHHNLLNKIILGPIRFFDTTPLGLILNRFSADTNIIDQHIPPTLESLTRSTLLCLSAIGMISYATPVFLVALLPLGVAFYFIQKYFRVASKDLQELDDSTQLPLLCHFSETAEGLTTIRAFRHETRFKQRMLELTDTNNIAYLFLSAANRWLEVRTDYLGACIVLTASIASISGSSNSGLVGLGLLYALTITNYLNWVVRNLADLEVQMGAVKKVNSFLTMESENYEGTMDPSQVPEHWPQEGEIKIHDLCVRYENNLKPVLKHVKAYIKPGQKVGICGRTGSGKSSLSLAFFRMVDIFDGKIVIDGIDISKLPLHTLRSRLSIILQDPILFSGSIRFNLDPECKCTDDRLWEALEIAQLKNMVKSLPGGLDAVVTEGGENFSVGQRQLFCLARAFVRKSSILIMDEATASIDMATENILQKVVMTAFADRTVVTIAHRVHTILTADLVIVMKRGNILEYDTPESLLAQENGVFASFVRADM
# Sequence (Q15842 whole entry partner, species assumed): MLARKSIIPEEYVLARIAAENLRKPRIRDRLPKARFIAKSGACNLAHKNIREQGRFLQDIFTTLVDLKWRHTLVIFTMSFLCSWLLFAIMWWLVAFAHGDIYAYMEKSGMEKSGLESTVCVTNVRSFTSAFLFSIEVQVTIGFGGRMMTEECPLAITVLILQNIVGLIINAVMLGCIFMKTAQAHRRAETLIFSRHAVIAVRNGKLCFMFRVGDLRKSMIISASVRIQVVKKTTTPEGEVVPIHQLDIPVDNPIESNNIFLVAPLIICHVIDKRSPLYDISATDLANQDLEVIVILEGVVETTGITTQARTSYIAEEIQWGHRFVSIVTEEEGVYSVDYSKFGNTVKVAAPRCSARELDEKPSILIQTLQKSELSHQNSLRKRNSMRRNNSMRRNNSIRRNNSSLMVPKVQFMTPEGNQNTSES
# assay-protocol: Thallium flux assay of Kir6.1/SUR2B in HEK293 cells
# Type: cell-based
# reported-conditions: pinacidil-activated, read-out: Kir6.1/SUR2B IC50
readout-label: log10 IC50 (log10 of the value in nM)
Log10 applied to IC50; unit prior to transform: nM.

Past entries and their recorded results:
molecular-string | endpoint-value
O=C(NCc1cc(-c2ccncc2)n(C2CCCC2)n1)Nc1cccs1 | 2.72
Cc1nc(-c2cccs2)sc1CNC(=O)Nc1ccncc1 | 4.10
Cn1nc(CNC(=O)Nc2cccs2)cc1-c1ccncc1 | 3.79
Cn1nc(CNC(=O)Nc2cccc(C(F)(F)F)c2)cc1-c1ccncc1 | 2.93

# input for lookup
q: Item `Cc1nc(-c2ccccc2F)sc1CNC(=O)Nc1cccs1` has what recorded log10 IC50?
a: 2.74

---

# assayed-system: Kir6.1/SUR2B (Homo sapiens)
# Construct: expressed in transfected cells; also transiently transfected HEK293T
# assay-protocol: Thallium flux assay of Kir6.1/SUR2B in HEK293 cells
# Format: cell-based
# reported-conditions: pinacidil-activated, read-out: Kir6.1/SUR2B IC50
readout-label: IC50

molecular-string | assayed-system | readout-label | endpoint-value
Cc1nc(-c2cccs2)sc1CNC(=O)Nc1cccs1 | Kir6.1/SUR2B (Homo sapiens) | IC50 | 104 nM
Cn1nc(CNC(=O)Nc2cccs2)c2ccccc2c1=O | Kir6.1/SUR2B (Homo sapiens) | IC50 | 780 nM
O=C(NCC1(c2ccc(F)cc2)CC1)Nc1cccs1 | Kir6.1/SUR2B (Homo sapiens) | IC50 | 987 nM

q: I have this compound here, `Cc1nc(-c2cccs2)sc1CNC(=O)Nc1cccnc1` , and I need its recorded IC50.
a: 1620 nM

---

# assayed-system: Kir2.3 (Homo sapiens)
# Sequence (P48050 whole entry): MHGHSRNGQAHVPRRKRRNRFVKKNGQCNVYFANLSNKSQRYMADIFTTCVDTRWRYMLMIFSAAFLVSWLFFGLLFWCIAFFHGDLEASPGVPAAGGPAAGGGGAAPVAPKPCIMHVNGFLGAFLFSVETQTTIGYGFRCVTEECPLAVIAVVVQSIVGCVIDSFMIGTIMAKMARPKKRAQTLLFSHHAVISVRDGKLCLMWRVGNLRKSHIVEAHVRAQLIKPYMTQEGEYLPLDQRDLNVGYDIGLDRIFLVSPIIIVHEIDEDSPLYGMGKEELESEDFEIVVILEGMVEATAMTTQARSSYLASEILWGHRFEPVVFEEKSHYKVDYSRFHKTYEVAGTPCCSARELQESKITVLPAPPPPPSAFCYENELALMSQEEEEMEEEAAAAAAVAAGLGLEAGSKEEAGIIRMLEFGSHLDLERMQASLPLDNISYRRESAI
# assay-protocol: Thallium flux selectivity assay Kir2.3
pIC50: −log10 of the molar value.
readout-label: pIC50

q: I have this compound here, `Cc1nc(-c2cccs2)sc1CNC(=O)Nc1cccs1` , and I need its recorded pIC50.
a: < 4.52

---

# assay-protocol: Rat intravenous pharmacokinetics
# Assay type: in vivo
# reported-conditions: male, Sprague Dawley, plasma; rat, 1 mg/kg IV; read-out: CLp
# Protocol: All animal housing and experimental procedures were approved by the Vanderbilt University Animal Care and Use committee and followed the guidelines set forth by the Guide for the Care and Use of Laboratory Animals. […] In vivo pharmacokinetic parameters of VU0542270 were determined from the observed individual animal time-versus-concentration data using noncompartmental analysis via WinNonlin (WNL; v.5.3, Pharsight Corp., Mountain View, CA.). […]
readout-label: clearance (mL/min/kg)
Report only the number, with the unit mL/min/kg understood.

q: I am curious: what clearance value has been reported for `Cc1nc(-c2cccs2)sc1CNC(=O)Nc1cccs1` ?
a: 17.7
